List of IC50 tested on Epidermal growth factor receptor (Homo sapiens, UniProt P00533, C797S/L858R/T790M).
Sequence (P00533 25-1210 T790M/C797S/L858R limits assumed): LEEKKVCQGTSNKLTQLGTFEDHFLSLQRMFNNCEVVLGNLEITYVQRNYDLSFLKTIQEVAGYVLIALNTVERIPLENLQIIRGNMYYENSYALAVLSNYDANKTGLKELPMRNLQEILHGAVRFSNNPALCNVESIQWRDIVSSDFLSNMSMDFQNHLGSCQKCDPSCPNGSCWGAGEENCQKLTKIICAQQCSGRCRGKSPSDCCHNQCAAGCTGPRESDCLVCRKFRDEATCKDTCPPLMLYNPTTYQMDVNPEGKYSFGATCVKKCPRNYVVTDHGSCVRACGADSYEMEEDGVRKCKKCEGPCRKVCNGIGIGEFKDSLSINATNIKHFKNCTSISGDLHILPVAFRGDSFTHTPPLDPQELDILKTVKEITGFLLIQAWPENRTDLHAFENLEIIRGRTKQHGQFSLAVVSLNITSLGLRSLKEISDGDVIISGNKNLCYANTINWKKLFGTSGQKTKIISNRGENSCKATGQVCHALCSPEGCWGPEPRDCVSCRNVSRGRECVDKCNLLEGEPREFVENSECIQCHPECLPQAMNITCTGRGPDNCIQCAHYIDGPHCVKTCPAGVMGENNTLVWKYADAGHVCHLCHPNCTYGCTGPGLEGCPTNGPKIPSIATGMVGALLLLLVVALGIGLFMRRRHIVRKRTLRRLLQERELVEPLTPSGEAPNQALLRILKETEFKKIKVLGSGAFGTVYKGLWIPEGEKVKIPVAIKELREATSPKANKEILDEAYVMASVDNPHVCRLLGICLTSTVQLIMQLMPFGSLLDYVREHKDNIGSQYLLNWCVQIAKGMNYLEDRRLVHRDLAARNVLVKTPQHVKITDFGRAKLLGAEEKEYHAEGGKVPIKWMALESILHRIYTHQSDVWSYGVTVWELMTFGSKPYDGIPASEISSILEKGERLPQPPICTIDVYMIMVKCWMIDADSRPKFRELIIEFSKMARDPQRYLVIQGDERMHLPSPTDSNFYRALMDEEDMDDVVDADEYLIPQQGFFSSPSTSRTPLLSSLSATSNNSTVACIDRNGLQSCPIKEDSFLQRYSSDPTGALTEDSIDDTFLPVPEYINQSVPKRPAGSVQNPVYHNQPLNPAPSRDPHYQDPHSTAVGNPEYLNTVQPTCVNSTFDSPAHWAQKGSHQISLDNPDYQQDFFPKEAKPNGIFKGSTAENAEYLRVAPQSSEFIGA
Give bare numbers, in nM.

{"query-smiles": "CC(=O)Nc1nc(-c2ccc(F)cc2)c(-c2ccnc(Nc3ccc4c(ccn4CCN(C)C)c3)n2)s1", "IC50 (nM)": 159}
{"query-smiles": "CCS(=O)(=O)N1CCC(c2nc(-c3ccc(F)cc3)c(-c3ccnc(Nc4ccc(N5CCN(C)CC5)cc4)n3)s2)CC1", "IC50 (nM)": 166}
{"query-smiles": "CCS(=O)(=O)N1CCC(c2nc(-c3ccc(F)cc3)c(-c3ccnc(Nc4ccc(N5CCN(C)CC5)c(C)c4)n3)s2)CC1", "IC50 (nM)": 289}

Alright, here's another compound for you.
Query: Can you share its IC50? I mean this compound: CCS(=O)(=O)N1CCC(c2nc(-c3ccc(F)cc3)c(-c3ccnc(Nc4ccc5c(ccn5CCN(C)C)c4)n3)s2)CC1
Reply: 261
